# studyTarget: VLA-4 (Homo sapiens, UniProt P05556+P13612)
# Construct: host or cells: Jurkat clone E6-1
# Sequence (P13612 34-1032): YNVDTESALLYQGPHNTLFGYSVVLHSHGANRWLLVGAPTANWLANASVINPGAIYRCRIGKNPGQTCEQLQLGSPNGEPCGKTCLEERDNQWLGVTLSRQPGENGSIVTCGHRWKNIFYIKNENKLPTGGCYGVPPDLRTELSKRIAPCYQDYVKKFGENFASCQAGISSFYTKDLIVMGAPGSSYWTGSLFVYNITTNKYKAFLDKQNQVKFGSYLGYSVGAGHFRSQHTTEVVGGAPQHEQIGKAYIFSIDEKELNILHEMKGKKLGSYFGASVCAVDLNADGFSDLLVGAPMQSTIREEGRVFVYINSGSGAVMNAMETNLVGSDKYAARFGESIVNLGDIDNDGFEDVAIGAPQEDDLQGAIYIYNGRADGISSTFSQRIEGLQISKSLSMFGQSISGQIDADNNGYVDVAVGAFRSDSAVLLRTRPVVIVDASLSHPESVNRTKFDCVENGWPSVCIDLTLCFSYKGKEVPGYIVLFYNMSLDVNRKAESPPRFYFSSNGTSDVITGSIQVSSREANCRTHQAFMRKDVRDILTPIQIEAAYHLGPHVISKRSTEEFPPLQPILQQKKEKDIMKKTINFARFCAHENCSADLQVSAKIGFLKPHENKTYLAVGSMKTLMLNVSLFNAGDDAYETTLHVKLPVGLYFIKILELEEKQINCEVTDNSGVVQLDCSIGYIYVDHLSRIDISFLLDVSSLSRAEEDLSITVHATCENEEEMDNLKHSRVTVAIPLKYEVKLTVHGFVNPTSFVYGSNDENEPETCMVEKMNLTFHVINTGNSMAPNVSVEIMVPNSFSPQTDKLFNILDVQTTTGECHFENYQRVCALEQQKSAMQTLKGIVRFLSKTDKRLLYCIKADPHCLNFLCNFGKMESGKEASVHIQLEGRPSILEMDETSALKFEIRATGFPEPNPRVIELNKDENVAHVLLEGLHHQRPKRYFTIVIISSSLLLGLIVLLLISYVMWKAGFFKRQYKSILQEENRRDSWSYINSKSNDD
# Sequence (P05556 21-798): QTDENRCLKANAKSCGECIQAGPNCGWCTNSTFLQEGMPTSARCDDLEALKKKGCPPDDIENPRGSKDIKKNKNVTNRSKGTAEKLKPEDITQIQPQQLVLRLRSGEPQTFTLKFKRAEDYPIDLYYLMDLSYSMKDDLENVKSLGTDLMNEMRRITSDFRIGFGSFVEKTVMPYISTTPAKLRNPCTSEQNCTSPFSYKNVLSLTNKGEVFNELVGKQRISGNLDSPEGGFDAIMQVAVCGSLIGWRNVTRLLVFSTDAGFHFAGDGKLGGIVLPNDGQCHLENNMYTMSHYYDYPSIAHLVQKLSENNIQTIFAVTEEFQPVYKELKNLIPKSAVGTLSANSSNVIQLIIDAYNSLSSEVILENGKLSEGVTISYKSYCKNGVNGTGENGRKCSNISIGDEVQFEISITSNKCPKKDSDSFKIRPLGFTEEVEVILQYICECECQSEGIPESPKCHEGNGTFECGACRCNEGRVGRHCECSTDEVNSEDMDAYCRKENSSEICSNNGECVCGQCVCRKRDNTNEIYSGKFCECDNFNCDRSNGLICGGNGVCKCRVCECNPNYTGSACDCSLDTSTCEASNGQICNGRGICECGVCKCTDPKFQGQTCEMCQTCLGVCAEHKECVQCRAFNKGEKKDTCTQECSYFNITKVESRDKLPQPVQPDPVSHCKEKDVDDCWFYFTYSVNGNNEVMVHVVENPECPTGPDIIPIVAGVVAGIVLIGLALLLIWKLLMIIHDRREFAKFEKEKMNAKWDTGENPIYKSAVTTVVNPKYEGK
# assayComment: Adhesion of Jurkat cells to immobilized VCAM-1 (domains 1-3)
# Assay type: cell-based
# conditionInfo: adhesion of CFSE-labeled Jurkat cells to recombinant human VCAM-1 (domains 1-3) coated plates; compounds as yielded by solid phase synthesis, purity about 40-90%; read-out: IC50
quantity: IC50

Check out these entries, answers already filled in.
CN1CCN(C(=O)Nc2ccc(C[C@H](NC(=O)C3CCCN(C(=O)NCc4ccccc4)C3)C(=O)O)cc2)CC1 (stereo partly shown); 0.5 to 2 µM
Cc1ccccc1-c1ccc(C[C@H](NC(=O)C2CCCN(C(=O)OC3CCCC3)C2)C(=O)O)cc1 (stereo partly shown); 0.5 to 2 µM
O=C(N[C@H](Cc1ccc(NC(=O)N2CCc3ccccc3C2)cc1)C(=O)O)C1CCCN(C(=O)c2ccc(OC(F)(F)F)cc2)C1 (stereo partly shown); 2 to 10 µM

Shifting focus to the compound that follows.
Q. Suppose we examine the compound O=C(N[C@@H](Cc1ccc(-c2cc(Cl)ccc2Cl)cc1)C(=O)O)C1CCCN(C(=O)c2cccc(Cl)c2)C1 (stereo partly shown) ; what IC50 value has been reported?
A. 2 to 10 µM

---

# studyTarget: VLA-4 (Homo sapiens, UniProt P05556+P13612)
# Construct: host or cells: Jurkat clone E6-1
# assayComment: Adhesion of Jurkat cells to immobilized VCAM-1 (domains 1-3)
# Type: cell-based
# conditionInfo: adhesion of CFSE-labeled Jurkat cells to recombinant human VCAM-1 (domains 1-3) coated plates; compounds as yielded by solid phase synthesis, purity about 40-90%; read-out: IC50
Can you tell me IC50 for the items I'm about to list?

CCCNc1ncnc(N2CCCC(C(=O)N[C@@H](Cc3ccc(-c4ccccc4C)cc3)C(=O)O)C2)c1F (stereo partly drawn); 2000 to 10000 nM
COc1ccccc1C(=O)N1CCCC(C(=O)N[C@@H](Cc2ccc(-c3cc(Cl)ccc3Cl)cc2)C(=O)O)C1 (stereo partly drawn); ≤ 500 nM
Cc1ccc(S(=O)(=O)N2CCCC(C(=O)N[C@@H](Cc3ccc(NC(=O)N4CCN(C)CC4)cc3)C(=O)O)C2)cc1 (stereo partly drawn); ≤ 500 nM
O=C(N[C@@H](Cc1ccc(NC(=O)N2CCN(c3ccccc3)CC2)cc1)C(=O)O)C1CCCN(c2ncnc(N3CCCC3)c2F)C1 (stereo partly drawn); 2000 to 10000 nM
O=C(N[C@@H](Cc1ccc(NC(=O)N2CCOCC2)cc1)C(=O)O)C1CCCN(S(=O)(=O)c2ccc3ccccc3c2)C1 (stereo partly drawn); ≤ 500 nM

Next, consider the following compound.
Q. Consider the compound shown here: CN1CCN(C(=O)Nc2ccc(C[C@H](NC(=O)C3CCCN(c4ncnc(NC5CCCC5)c4F)C3)C(=O)O)cc2)CC1 (stereo partly drawn) What is its recorded IC50?
A. 2000 to 10000 nM

Provenance of the data: patent US6794386B2
